- Target under test: Tyrosine-protein kinase ITK/TSK (Homo sapiens)
- Sequence (Q08881 whole entry): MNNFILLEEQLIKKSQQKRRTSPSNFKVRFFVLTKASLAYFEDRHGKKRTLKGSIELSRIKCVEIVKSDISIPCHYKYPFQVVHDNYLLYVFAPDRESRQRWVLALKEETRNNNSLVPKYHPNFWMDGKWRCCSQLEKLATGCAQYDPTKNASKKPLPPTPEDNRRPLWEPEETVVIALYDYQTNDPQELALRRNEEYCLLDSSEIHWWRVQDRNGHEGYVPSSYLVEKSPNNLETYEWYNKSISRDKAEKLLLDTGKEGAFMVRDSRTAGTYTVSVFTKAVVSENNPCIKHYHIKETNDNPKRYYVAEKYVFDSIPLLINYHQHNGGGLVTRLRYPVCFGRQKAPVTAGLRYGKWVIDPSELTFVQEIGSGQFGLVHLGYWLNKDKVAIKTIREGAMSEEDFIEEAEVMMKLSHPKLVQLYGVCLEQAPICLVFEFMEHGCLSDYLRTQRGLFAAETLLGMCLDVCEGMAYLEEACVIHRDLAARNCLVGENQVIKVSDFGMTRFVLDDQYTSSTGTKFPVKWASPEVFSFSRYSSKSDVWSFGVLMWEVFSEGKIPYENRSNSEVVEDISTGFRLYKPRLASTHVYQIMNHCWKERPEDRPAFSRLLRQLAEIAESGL
pIC50: −log10 of the molar value.
Readout label: pIC50

Exercise: Reported pIC50 for Tyrosine-protein kinase ITK/TSK (Homo sapiens), given CCCc1cc(N2CCCC(O)C2)nc2sc(C(N)=O)c(N)c12 (stereo unspecified) ?
Solution: < 5.15

* * *

- Target under test: UniProt:O75582
- Sequence (O75582 whole entry, looked up): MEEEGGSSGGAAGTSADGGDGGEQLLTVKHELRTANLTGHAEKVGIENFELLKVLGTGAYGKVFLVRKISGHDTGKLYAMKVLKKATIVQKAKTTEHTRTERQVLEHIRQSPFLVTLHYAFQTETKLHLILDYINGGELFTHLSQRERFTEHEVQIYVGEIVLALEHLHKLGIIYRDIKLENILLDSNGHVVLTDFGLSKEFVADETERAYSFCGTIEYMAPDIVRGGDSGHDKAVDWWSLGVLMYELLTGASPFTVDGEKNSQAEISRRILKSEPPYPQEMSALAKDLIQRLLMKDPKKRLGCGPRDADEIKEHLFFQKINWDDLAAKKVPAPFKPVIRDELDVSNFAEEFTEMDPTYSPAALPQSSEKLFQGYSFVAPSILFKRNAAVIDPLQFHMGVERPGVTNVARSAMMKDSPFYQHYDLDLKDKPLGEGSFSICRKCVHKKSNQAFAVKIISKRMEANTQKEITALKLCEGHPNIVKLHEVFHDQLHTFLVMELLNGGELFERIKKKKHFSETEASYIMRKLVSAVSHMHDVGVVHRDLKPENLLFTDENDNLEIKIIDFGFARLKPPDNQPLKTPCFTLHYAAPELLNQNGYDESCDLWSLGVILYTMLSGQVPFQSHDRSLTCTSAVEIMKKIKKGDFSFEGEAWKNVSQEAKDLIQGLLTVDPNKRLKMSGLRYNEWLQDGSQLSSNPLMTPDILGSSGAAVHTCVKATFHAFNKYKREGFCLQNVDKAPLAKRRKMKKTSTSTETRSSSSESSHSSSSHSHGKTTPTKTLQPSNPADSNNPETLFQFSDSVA
- Method description: Inhibition of MSK1 at 10 uM
Calls of active or inactive are those of the source. The calls are words filed in the database; no cut-off is given here.

| Compound | Activity |
| --- | --- |
| CCCc1cc(N2CCNCC2)nc2sc(C(N)=O)c(N)c12 | inactive |
| CCCc1cc(N2CCCC(O)C2)nc2sc(C(N)=O)c(N)c12 (centres undefined) | inactive |
| CCCc1cc(N2CCC(O)CC2)nc2sc(C(N)=O)c(N)c12 | inactive |
| CCCc1cc(N2CCC(N)CC2)nc2sc(C(N)=O)c(N)c12 | inactive |

* * *

pIC50: −log10 of the molar value.
High affinity nerve growth factor receptor (Homo sapiens, UniProt P04629) pIC50 data
Sequence (P04629 whole entry): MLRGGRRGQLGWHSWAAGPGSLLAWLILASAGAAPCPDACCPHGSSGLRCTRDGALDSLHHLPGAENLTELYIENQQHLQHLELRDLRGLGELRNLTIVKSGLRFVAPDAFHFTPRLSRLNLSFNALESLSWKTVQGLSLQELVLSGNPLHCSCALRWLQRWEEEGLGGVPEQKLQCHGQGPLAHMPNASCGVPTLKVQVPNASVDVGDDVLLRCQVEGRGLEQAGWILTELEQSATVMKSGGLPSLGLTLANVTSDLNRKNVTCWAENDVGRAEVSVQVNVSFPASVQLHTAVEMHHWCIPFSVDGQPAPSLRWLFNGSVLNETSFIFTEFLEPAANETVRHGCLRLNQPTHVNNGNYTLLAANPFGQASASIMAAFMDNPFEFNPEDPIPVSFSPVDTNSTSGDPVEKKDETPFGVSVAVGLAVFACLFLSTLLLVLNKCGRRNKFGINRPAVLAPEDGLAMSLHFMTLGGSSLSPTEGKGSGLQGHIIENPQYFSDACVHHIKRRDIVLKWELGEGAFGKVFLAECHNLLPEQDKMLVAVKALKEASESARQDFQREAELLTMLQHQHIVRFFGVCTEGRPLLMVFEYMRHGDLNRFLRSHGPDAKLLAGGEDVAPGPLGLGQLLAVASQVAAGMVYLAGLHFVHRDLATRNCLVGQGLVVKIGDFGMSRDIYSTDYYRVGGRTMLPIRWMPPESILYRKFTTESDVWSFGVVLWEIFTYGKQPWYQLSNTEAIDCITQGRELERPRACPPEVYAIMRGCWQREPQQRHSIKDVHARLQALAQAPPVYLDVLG

| Molecule | pIC50 |
| --- | --- |
| CCCc1cc(N2CCC(N)CC2)nc2sc(C(N)=O)c(N)c12 | < 5.15 |

Exercise: What measured pIC50 goes with CCCc1cc(N2CCCC(O)C2)nc2sc(C(N)=O)c(N)c12 (configuration not stated) ?
Solution: < 5.15

* * *

- Method description: Plasma concentration in mouse at 30 mg/kg, po after 120 mins
- Format: ADME, organism-based
- Design: dose 30 mg/kg, route oral
Readout label: concentration at 2 h (µM)

a: CCCc1cc(N2CCC(N)CC2)nc2sc(C(N)=O)c(N)c12
b: CCCc1cc(N2CCCC(O)C2)nc2sc(C(N)=O)c(N)c12 (centres undefined)
c: CCCc1cc(N2CCC(O)CC2)nc2sc(C(N)=O)c(N)c12
Exercise: Reorder the list: decreasing concentration at 2 h. Write the labels in rank order as requested.
Solution: c, b, a

* * *

- Target under test: UniProtKB P29320
- Sequence (P29320 whole entry): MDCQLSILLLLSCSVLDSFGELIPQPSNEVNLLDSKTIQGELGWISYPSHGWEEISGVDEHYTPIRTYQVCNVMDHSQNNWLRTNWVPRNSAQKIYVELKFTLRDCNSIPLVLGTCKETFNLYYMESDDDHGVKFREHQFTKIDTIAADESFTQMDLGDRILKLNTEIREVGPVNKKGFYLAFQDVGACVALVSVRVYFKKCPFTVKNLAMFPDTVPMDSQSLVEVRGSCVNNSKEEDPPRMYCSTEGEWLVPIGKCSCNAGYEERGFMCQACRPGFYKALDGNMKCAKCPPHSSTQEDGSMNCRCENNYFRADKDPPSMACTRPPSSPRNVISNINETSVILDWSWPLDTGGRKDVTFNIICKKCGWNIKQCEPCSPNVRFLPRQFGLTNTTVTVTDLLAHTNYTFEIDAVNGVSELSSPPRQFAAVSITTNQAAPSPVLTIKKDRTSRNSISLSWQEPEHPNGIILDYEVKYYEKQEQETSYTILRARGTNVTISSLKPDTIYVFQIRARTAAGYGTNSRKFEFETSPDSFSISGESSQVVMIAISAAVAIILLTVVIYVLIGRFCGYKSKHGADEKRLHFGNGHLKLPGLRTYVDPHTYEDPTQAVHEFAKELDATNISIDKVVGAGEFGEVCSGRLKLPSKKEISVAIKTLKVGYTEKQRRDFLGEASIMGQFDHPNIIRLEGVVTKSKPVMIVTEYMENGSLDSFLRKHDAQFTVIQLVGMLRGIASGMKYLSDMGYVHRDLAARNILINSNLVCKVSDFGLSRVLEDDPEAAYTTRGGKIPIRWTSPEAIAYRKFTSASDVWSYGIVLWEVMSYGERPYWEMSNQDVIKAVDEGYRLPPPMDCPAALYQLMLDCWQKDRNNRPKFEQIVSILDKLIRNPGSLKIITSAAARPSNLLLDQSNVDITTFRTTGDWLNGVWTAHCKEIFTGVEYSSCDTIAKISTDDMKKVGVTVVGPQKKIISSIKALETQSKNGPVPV
Readout label: IC50 (µM)

| Substance smiles | Readout label | Measured value |
| --- | --- | --- |
| CCCc1cc(N2CCC(O)CC2)nc2sc(C(N)=O)c(N)c12 | IC50 | 9 |
| CCCc1cc(N2CCNCC2)nc2sc(C(N)=O)c(N)c12 | IC50 | 8 |

* * *

Ephrin type-A receptor 2 (Homo sapiens, UniProt P29317) IC50 data
Sequence (P29317 whole entry): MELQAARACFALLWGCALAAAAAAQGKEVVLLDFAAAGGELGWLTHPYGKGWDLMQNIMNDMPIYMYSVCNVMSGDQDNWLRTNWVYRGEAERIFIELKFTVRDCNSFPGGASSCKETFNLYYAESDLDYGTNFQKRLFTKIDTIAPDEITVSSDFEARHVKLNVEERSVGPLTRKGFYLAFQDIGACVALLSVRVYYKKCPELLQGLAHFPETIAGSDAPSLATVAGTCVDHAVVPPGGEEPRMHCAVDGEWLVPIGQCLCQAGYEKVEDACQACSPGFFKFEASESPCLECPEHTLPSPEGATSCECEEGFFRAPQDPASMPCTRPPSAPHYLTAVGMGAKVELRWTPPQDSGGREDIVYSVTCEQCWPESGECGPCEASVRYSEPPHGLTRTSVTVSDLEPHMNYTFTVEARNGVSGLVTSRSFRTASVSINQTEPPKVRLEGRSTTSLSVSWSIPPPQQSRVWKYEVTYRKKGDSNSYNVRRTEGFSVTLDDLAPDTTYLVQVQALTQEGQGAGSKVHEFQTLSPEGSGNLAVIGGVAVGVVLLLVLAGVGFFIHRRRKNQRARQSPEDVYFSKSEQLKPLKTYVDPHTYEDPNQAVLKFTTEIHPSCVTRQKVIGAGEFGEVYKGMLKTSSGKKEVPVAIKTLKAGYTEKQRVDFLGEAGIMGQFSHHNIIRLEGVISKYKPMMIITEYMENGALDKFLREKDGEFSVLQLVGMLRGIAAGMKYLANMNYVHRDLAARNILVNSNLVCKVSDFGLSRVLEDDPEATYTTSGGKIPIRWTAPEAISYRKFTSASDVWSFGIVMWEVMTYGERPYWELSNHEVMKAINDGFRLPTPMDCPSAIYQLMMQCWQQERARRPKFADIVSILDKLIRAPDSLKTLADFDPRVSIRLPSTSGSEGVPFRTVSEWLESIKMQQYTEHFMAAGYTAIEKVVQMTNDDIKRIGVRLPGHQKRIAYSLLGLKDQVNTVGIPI

| Substance smiles | Target under test | Readout label | Measured value |
| --- | --- | --- | --- |
| CCCc1cc(N2CCC(N)CC2)nc2sc(C(N)=O)c(N)c12 | Ephrin type-A receptor 2 (Homo sapiens, UniProt P29317) | IC50 | > 7 µM |

Consider the additional compound presented here.
Exercise: Reported IC50 for Ephrin type-A receptor 2 (Homo sapiens, UniProt P29317), given CCCc1cc(N2CCC(O)CC2)nc2sc(C(N)=O)c(N)c12 ?
Solution: > 7 µM

* * *

- Method description: Inhibition of PKA at 10 uM
Active and inactive are the calls of the source. The rule behind the calls is not given here.

| Molecule | Activity |
| --- | --- |
| CCCc1cc(N2CCC(N)CC2)nc2sc(C(N)=O)c(N)c12 | inactive |
| CCCc1cc(N2CCCC(O)C2)nc2sc(C(N)=O)c(N)c12 (centres undefined) | inactive |
| CCCc1cc(N2CCC(O)CC2)nc2sc(C(N)=O)c(N)c12 | inactive |
| CCCc1cc(N2CCNCC2)nc2sc(C(N)=O)c(N)c12 | inactive |

* * *

- Target under test: Tyrosine-protein kinase Lyn (Homo sapiens)
- Sequence (P07948 whole entry): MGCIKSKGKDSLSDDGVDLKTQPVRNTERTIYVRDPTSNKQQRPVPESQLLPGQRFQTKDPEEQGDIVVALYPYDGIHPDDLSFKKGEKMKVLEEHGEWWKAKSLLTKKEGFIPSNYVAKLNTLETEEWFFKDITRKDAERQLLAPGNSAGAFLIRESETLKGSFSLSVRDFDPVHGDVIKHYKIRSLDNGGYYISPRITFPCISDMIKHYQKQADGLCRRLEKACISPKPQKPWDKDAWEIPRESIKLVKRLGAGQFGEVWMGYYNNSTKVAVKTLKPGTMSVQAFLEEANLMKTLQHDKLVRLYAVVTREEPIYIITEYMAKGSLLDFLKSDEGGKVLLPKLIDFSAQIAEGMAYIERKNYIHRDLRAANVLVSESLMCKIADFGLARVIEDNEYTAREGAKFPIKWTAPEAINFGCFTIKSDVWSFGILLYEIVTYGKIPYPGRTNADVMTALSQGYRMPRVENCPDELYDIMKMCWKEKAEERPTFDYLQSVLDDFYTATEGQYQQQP
Readout label: IC50

Exercise: What measured IC50 goes with CCCc1cc(N2CCCC(O)C2)nc2sc(C(N)=O)c(N)c12 (stereo unspecified) ?
Solution: > 7 µM

* * *

- Target under test: Inhibitor of nuclear factor kappa-B kinase subunit beta (Homo sapiens, UniProt O14920)
- Method description: Inhibition of Flag epitope-tagged IKK-beta preincubated for 5 mins by scintillation proximity assay
pIC50: −log10 of the molar value.
Readout label: pIC50

Completed entries (count: 3):
| Compound | Target under test | Readout label | Measured value |
| --- | --- | --- | --- |
| CCCc1cc(N2CCCCC(N)C2)nc2sc(C(N)=O)c(N)c12 (stereo not given) | Inhibitor of nuclear factor kappa-B kinase subunit beta (Homo sapiens, UniProt O14920) | pIC50 | 6.20 |
| CCCc1cc(N2CCCNC(=O)C2)nc2sc(C(N)=O)c(N)c12 | Inhibitor of nuclear factor kappa-B kinase subunit beta (Homo sapiens, UniProt O14920) | pIC50 | 6.85 |
| Cc1cc(-c2ccccn2)c2c(N)c(C(N)=O)sc2n1 | Inhibitor of nuclear factor kappa-B kinase subunit beta (Homo sapiens, UniProt O14920) | pIC50 | 5.22 |

A: COc1ccnc2sc(C(N)=O)c(N)c12
B: CCCc1cc(N2CCC(C(=O)OC)CC2)nc2sc(C(N)=O)c(N)c12
C: CCCc1cc(N2CCC(N(C)C)CC2)nc2sc(C(N)=O)c(N)c12
Exercise: List items by pIC50 in falling order. Write the labels in rank order as requested.
Solution: C, A, B
(C: 6.17, A: 5.33, B: 5.11)

* * *

- Method description: Plasma concentration in mouse at 10 mg/kg, po after 120 mins
- Type: ADME, organism-based
- Design: dose 10 mg/kg, route oral
Readout label: concentration at 2 h (nM)

P: CCCc1cc(N2CCC(O)CC2)nc2sc(C(N)=O)c(N)c12
Q: CCCc1cc(N2CCCC(O)C2)nc2sc(C(N)=O)c(N)c12 (centres undefined)
Exercise: // pick min by concentration at 2 h: P , Q The response must carry the label of the picked entry.
Solution: Q

* * *

- Target under test: Hepatocyte growth factor receptor (Homo sapiens)
- Sequence (P08581 whole entry): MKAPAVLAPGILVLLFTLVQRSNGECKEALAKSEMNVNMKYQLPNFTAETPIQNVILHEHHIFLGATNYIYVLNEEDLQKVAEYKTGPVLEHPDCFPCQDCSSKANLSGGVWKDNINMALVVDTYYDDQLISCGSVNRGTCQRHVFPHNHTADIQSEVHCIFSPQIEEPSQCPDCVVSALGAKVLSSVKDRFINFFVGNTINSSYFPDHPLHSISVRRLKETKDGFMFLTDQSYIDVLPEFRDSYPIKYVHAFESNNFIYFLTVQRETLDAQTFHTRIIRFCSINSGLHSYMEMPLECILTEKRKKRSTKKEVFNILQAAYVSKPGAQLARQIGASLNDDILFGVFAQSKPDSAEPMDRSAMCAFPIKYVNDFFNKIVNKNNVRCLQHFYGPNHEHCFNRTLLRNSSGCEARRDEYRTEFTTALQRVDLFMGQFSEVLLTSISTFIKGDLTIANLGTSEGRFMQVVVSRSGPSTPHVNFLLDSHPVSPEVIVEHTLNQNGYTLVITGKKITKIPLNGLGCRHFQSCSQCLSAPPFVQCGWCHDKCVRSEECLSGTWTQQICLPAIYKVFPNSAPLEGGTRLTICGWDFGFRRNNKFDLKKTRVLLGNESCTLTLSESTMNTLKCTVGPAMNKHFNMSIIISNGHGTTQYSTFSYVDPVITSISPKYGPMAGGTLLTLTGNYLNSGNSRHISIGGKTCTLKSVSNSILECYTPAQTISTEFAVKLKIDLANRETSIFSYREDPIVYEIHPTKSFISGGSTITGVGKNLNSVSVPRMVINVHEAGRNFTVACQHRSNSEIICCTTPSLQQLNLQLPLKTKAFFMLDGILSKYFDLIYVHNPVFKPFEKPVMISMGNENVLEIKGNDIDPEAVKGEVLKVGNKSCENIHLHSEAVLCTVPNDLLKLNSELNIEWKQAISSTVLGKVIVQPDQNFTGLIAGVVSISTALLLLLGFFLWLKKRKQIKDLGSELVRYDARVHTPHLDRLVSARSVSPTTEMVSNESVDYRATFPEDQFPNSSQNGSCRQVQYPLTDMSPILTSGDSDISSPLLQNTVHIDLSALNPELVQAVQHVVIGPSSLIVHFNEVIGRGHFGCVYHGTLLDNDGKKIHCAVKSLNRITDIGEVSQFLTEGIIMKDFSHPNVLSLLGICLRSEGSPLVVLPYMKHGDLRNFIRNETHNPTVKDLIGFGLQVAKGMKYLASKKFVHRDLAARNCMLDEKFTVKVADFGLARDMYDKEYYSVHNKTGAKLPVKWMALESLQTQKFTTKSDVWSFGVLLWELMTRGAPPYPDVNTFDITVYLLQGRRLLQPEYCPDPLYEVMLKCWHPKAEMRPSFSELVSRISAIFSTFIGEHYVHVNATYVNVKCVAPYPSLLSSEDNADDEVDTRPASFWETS
pIC50: −log10 of the molar value.
Readout label: pIC50

| Compound | Target under test | pIC50 |
| --- | --- | --- |
| CCCc1cc(N2CCNCC2)nc2sc(C(N)=O)c(N)c12 | Hepatocyte growth factor receptor (Homo sapiens) | < 5.15 |

Consider the additional compound presented here.
Exercise: Reported pIC50 for Hepatocyte growth factor receptor (Homo sapiens), given CCCc1cc(N2CCCC(O)C2)nc2sc(C(N)=O)c(N)c12 (configuration not stated) ?
Solution: < 5.15

* * *

- Method description: Inhibition of AMPK at 10 uM
Calls of active or inactive are those of the source. The rule behind the calls is not given here.
Readout label: Activity

| Molecule | Measured value |
| --- | --- |
| CCCc1cc(N2CCCC(O)C2)nc2sc(C(N)=O)c(N)c12 (centres undefined) | inactive |
| CCCc1cc(N2CCC(N)CC2)nc2sc(C(N)=O)c(N)c12 | inactive |
| CCCc1cc(N2CCC(O)CC2)nc2sc(C(N)=O)c(N)c12 | inactive |
| CCCc1cc(N2CCNCC2)nc2sc(C(N)=O)c(N)c12 | inactive |
